test.system: FABP-5 (Homo sapiens, UniProt Q01469)
Construct: purchased Raybiotech 268-10276-1
Sequence (Q01469 whole entry): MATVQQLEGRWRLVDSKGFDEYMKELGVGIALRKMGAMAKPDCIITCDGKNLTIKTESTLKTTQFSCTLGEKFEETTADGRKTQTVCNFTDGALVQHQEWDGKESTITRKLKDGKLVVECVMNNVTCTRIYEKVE
measurement.notes: FABP-5 ELISA inhibitory assay
Assay type: biochemical
The entries below are paired with their reported FABP-5 IC50.
State the value with its unit after it.

Please review the entries below; each comes with its answer.
1. CCCC(=O)NCCCCC(NC(=O)CCC)C(=O)[O-].CCCC(=O)NCCCCC(NC(=O)CCC)C(=O)[O-].[Ca+2] (stereo not shown) [Ca di-(di-n-butyryl lysinate), calcium di-(di-n-butyryl lysinate)]    786 µg/mL
2. CCCC(=O)N[C@@H](CC(C)C)C(=O)[O-].CCCC(=O)N[C@@H](CC(C)C)C(=O)[O-].[Zn+2] [Zn di-(n-butyryl leucinate), Zinc di-(n-butyryl leucinate)]    390.5 µg/mL
3. CCCC(=O)NCCCC[C@H](NC(=O)CCC)C(=O)[O-].CCCC(=O)NCCCC[C@H](NC(=O)CCC)C(=O)[O-].[Mg+2] [Mg di-(di-n-butyryl lysinate), magnesium di-(di-n-butyryl lysinate)]    349.1 µg/mL

Moving on to another compound below.
Query: Provide the documented FABP-5 IC50 with FABP-5 (Homo sapiens, UniProt Q01469) as the system for CCCC(=O)NCCCC[C@H](NC(=O)CCC)C(=O)[O-].CCCC(=O)NCCCC[C@H](NC(=O)CCC)C(=O)[O-].[Zn+2] [Zn di-(di-n-butyryl lysinate), Zinc di-(di-n-butyryl lysinate)]
Response: 644 µg/mL
